- test.name: LogD7.4 estimation by HPLC-based method
- Assay type: physicochemical
- condition.notes: calculated from retention time with one calibration function (A–F), Table S7
value.kind: logD7.4 (single determination)

CCOC(=O)Nc1ccc(C#Cc2ccccc2)nc1N    2.983
CCCC(=O)Nc1ccc(CNc2ccc(F)cc2)cc1C    2.870
Cc1cc(CNc2ccc(F)cc2F)ccc1NC(=O)c1cccnc1    2.952
Cc1cc(CNc2ccc(F)cc2)ccc1NC(=O)CCn1cccn1    2.924

====

- test.name: LogD7.4 estimation by HPLC-based method
- Type: physicochemical
- condition.notes: pH 7.4, estimated by HPLC-based method, pH 7.4; read-out: LogD 7.4
value.kind: chromatographic logD

CCCC(=O)Nc1c(C)cc(CNc2ccc(F)cc2)cc1C    3
Cc1nc(CNc2ccc(F)cc2)ccc1NC(=O)OCC(C)C    3.4
CCCC(=O)Nc1ncc(CNc2ccc(F)cc2)cc1C    2.3
CCCC(=O)Nc1ccc(CNc2ccc(F)cc2)cc1C    2.9
CCOC(=O)Nc1ccc(C#Cc2ccccc2)nc1N    3
